// data source = ChEMBL document CHEMBL3739308

Attribute: pIC50
Assay: Inhibition of Saccharomyces cerevisiae alpha-glucosidase using pNP-alpha-Glc as substrate assessed as release of p-nitrophenol incubated for 2 hrs by spectrophotometric analysis
Note: pIC50 values are expressed as the negative base-10 logarithm of concentration in M.

[
  {
    "line.notation": "COc1ccc(/C=C/c2cc(OC)cc(OC)c2O[C@H]2O[C@H](CO)[C@@H](O)[C@H](O)[C@H]2O)cc1",
    "pIC50": 4.04
  },
  {
    "line.notation": "COc1cc(/C=C/c2cc(OC)cc(OC)c2O[C@H]2O[C@H](CO)[C@H](O)[C@H](O)[C@H]2O)cc(OC)c1",
    "pIC50": 3.48
  },
  {
    "line.notation": "COc1ccc(/C=C/c2cc(OC)cc(OC)c2O[C@H]2O[C@H](CO)[C@H](O)[C@H](O)[C@H]2O)cc1",
    "pIC50": 3.70
  },
  {
    "line.notation": "COc1cc(/C=C/c2ccc(OC)c(OC)c2)c(O[C@H]2O[C@H](CO)[C@H](O)[C@H](O)[C@H]2O)c(OC)c1",
    "pIC50": 4.15
  },
  {
    "line.notation": "COc1cc(/C=C/c2cc(OC)cc(OC)c2O[C@H]2O[C@H](CO)[C@@H](O)[C@H](O)[C@H]2O)cc(OC)c1",
    "pIC50": 3.88
  }
]

Proceed to the following item.
The recorded pIC50 for "COc1cc(/C=C/c2ccc(OC)c(OC)c2)c(O[C@H]2O[C@H](CO)[C@@H](O)[C@H](O)[C@H]2O)c(OC)c1" is 4.11

====

The following compounds have recorded pIC50 on UniProt Q2UCU3.
Sequence (Q2UCU3 whole entry, looked up): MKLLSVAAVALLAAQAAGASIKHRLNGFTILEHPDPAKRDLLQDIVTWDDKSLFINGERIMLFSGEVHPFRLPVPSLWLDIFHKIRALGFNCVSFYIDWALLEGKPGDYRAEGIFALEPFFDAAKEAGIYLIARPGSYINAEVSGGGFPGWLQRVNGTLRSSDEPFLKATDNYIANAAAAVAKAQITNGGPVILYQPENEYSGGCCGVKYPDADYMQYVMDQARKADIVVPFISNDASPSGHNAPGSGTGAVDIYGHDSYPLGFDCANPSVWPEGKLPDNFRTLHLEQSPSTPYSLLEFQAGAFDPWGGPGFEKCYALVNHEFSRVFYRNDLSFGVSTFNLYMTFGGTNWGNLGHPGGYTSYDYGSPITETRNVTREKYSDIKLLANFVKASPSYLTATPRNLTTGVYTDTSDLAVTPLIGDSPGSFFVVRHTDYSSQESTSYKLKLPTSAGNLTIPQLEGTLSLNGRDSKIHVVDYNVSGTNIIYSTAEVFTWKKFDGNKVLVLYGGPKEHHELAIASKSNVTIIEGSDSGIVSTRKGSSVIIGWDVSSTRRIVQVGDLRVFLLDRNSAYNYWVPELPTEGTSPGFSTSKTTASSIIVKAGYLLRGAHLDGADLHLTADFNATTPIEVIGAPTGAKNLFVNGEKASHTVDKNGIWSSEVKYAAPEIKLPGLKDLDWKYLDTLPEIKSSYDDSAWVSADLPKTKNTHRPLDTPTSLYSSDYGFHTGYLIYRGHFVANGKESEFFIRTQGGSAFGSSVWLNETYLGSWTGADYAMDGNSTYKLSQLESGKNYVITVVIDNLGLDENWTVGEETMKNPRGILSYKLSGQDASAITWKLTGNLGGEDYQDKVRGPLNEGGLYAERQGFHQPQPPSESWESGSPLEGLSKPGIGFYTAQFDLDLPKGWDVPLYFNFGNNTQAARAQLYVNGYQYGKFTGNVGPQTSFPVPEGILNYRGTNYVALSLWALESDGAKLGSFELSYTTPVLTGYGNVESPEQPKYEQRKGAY
Note: pIC50 values are expressed as the negative base-10 logarithm of concentration in M.

[
  {
    "line.notation": "COc1cc(/C=C/c2cc(OC)cc(OC)c2O[C@H]2O[C@H](CO)[C@H](O)[C@H](O)[C@H]2O)cc(OC)c1",
    "pIC50": 3.53
  },
  {
    "line.notation": "COc1ccc(/C=C/c2cc(OC)cc(OC)c2O[C@H]2O[C@H](CO)[C@H](O)[C@H](O)[C@H]2O)cc1",
    "pIC50": 3.53
  },
  {
    "line.notation": "COc1cc(/C=C/c2ccc(OC)c(OC)c2)c(O[C@H]2O[C@H](CO)[C@H](O)[C@H](O)[C@H]2O)c(OC)c1",
    "pIC50": 3.52
  },
  {
    "line.notation": "COc1cc(/C=C/c2ccc(OC)c(OC)c2)c(O[C@H]2O[C@H](CO)[C@@H](O)[C@H](O)[C@H]2O)c(OC)c1",
    "pIC50": 3.59
  }
]

Proceed to the following item.
The recorded pIC50 for "COc1cc(/C=C/c2cc(OC)cc(OC)c2O[C@H]2O[C@H](CO)[C@@H](O)[C@H](O)[C@H]2O)cc(OC)c1" is 3.53

====

Experiment: Inhibition of almond beta-glucosidase using pNP-beta-Glc as substrate assessed as release of p-nitrophenol incubated for 30 mins by spectrophotometric analysis
Design: species or system Prunus dulcis
Settings: read-out: IC50
Attribute: pIC50
Note: pIC50 values are expressed as the negative base-10 logarithm of concentration in M.

Example entries and their recorded answers appear below.
[
  {
    "line.notation": "COc1cc(/C=C/c2ccc(OC)c(OC)c2)c(O[C@H]2O[C@H](CO)[C@@H](O)[C@H](O)[C@H]2O)c(OC)c1",
    "quantity.name": "pIC50",
    "result.number": 3.72
  },
  {
    "line.notation": "COc1cc(/C=C/c2cc(OC)cc(OC)c2O[C@H]2O[C@H](CO)[C@@H](O)[C@H](O)[C@H]2O)cc(OC)c1",
    "quantity.name": "pIC50",
    "result.number": 3.57
  }
]

The recorded pIC50 for "COc1ccc(/C=C/c2cc(OC)cc(OC)c2O[C@H]2O[C@H](CO)[C@H](O)[C@H](O)[C@H]2O)cc1" is 3.46

The recorded pIC50 for "COc1ccc(/C=C/c2cc(OC)cc(OC)c2O[C@H]2O[C@H](CO)[C@@H](O)[C@H](O)[C@H]2O)cc1" is 3.68

The recorded pIC50 for "COc1cc(/C=C/c2ccc(OC)c(OC)c2)c(O[C@H]2O[C@H](CO)[C@H](O)[C@H](O)[C@H]2O)c(OC)c1" is 3.77
